Tested on: HMPV clinical isolate TN/1501/A1
Assay summary: HMPV antiviral assay Method-B (clinical isolate TN/1501/A1 in LLC-MK2 cells, ATP-Lite readout)
Assay type: cell-based, Human metapneumovirus (HMPV)
Measurement conditions: human metapneumovirus, LLC-MK2, 144 h, hMPV WT1501 (clinical isolate TN/1501/A1), 6 days
Hi there, I'd appreciate the recorded EC50 for every entry that follows.

Look up EC50 for the entries below, preserving their order.
1. COc1cc(C(=O)NC[C@](O)(c2cc3c(c(-c4cnc(C#N)c(Cl)c4)n2)OC[C@]3(C)C(N)=O)C(F)(F)F)cc2cn(C(F)F)nc12
2. C[C@]1(C(N)=O)COc2c1cc([C@@](O)(CNC(=O)c1cc(Cl)c3nn(C4(F)CC4)cc3c1)C1CC1)nc2-c1ccc2c(c1)OC(F)(F)O2
3. COc1cc(C(=O)NC[C@](O)(c2cc3c(c(-c4cc(F)c(F)c(Cl)c4)n2)OC[C@]3(C)C(N)=O)C2CC2)cc2cc(Cl)c(C)nc12

Out:
["> 500 nM", "< 500 nM", "< 500 nM"]
